Overview of reported Ki across a group of molecules:
- target of assay: Adenosine receptor A2a (Homo sapiens, UniProt P29274)
- Sequence (P29274 whole entry): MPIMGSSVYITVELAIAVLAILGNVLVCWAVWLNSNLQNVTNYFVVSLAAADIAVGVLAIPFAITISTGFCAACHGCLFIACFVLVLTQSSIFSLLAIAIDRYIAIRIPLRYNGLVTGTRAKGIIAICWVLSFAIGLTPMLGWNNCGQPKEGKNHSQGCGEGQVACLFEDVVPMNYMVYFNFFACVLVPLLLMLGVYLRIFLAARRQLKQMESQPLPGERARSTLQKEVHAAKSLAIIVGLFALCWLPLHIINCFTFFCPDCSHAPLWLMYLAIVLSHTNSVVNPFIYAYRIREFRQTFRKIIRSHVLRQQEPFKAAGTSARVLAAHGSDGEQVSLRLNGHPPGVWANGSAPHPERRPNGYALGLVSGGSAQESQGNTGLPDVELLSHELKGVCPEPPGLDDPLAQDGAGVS
- assay comment: Displacement of [3H]NECA from human recombinant adenosine 2A receptor expressed in CHO cells after 3 hrs

- smi: "COc1ccc(NC(=O)Nc2nc3nn(C)cc3c3nc(-c4ccc(Cl)cc4)nn23)cc1"
  Ki: "1.46 µM"

Okay, now this molecule:
I have this molecule here, Cn1cc2c(nc(NC(=O)Nc3ccc(F)cc3)n3nc(-c4ccc(Br)cc4)nc23)n1 , and I need its recorded Ki.
5.93 µM

---

Overview of reported pKi across a group of compounds:
- target of assay: Adenosine receptor A2a (Homo sapiens)
- assay comment: Displacement of [3H]NECA from human recombinant adenosine 2A receptor expressed in CHO cells after 3 hrs
As a rule, pKi stands for the negative log10 of the concentration, concentration in M.

Look over these answered cases.
- smi: "O=C(Cc1ccccc1)Nc1nc2nn(CCc3ccccc3)cc2c2nc(-c3ccc(F)cc3)nn12"
  pKi: 6.24
- smi: "O=C(Nc1nc2nn(CCc3ccccc3)cc2c2nc(-c3ccc(Cl)cc3)nn12)c1ccccc1"
  pKi: 4.71

I have this compound here, Cn1cc2c(nc(NC(=O)Nc3ccc(F)cc3)n3nc(-c4ccc(Cl)cc4)nc23)n1 , and I need its recorded pKi.
5.97

I have this compound here, Cn1cc2c(nc(N)n3nc(-c4ccc(C(F)(F)F)cc4)nc23)n1 , and I need its recorded pKi.
5.16

I have this compound here, O=C(Cc1ccccc1)Nc1nc2nn(CCc3ccccc3)cc2c2nc(-c3ccccc3)nn12 , and I need its recorded pKi.
6.21

---

- target of assay: Adenosine receptor A3 (Homo sapiens)
- Sequence (P0DMS8 whole entry): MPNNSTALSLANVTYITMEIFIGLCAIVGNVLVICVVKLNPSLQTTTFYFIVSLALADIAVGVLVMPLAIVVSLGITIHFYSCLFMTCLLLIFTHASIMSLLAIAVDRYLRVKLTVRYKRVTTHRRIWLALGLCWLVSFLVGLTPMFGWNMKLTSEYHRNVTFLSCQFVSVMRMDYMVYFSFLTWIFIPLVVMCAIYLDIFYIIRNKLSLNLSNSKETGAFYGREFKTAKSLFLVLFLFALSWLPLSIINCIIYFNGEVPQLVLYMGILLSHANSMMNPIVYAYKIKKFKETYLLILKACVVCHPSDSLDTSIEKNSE
- assay comment: Displacement of [3H]NECA from human recombinant adenosine A3 receptor expressed in CHO cells after 3 hrs
Overview of reported pKi across a group of molecules:
As a rule, pKi stands for the negative log10 of the concentration, concentration in M.

Look over these answered cases.
- smi: "Cn1cc2c(nc(NC(=O)Nc3ccc(F)cc3)n3nc(-c4ccc(Br)cc4)nc23)n1"
  pKi: 8.76
- smi: "Cn1cc2c(nc(NC(=O)Nc3ccc(F)cc3)n3nc(-c4ccc(Cl)cc4)nc23)n1"
  pKi: 8.28
- smi: "Cn1cc2c(nc(NC(=O)Nc3ccc(F)cc3)n3nc(-c4ccc(C(F)(F)F)cc4)nc23)n1"
  pKi: 8.72

I have this molecule here, COc1ccc(NC(=O)Nc2nc3nn(C)cc3c3nc(-c4ccc(Br)cc4)nn23)cc1 , and I need its recorded pKi.
8.71

I have this molecule here, Cn1cc2c(nc(N)n3nc(-c4ccc(-c5ccccc5)cc4)nc23)n1 , and I need its recorded pKi.
6.83

---

Overview of reported Ratio Ki across a group of compounds:
- Organism: Homo sapiens
- assay comment: Selectivity ratio of Ki for human recombinant adenosine 2a receptor to Ki for human recombinant adenosine A3 receptor
No unit in the answer, please; the number alone is enough.

- smi: "Cn1cc2c(nc(NC(=O)Nc3ccccc3)n3nc(-c4ccc(Cl)cc4)nc23)n1"
  Ratio Ki: 577
- smi: "O=C(Cc1ccccc1)Nc1nc2nn(CCc3ccccc3)cc2c2nc(-c3ccco3)nn12"
  Ratio Ki: 1.33
- smi: "O=C(Cc1ccccc1)Nc1nc2nn(CCc3ccccc3)cc2c2nc(-c3ccc(Cl)cc3)nn12"
  Ratio Ki: 364

Okay, now this compound:
I have this compound here, Cn1cc2c(nc(NC(=O)Nc3ccccc3)n3nc(-c4ccc(Br)cc4)nc23)n1 , and I need its recorded Ratio Ki.
944
